Tested on: 885512-296-R-J2-PDC complex spheroid viability;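 further: spheroids exposed to agents for 7 days before viability read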
protocol_description: Anticancer human tumor 885512-296-R-J2-PDC patient-derived breast carcinoma cell line growth inhibition; active means viability on the fitted dose curve at most 10% of control; inactive means the rest
run_conditions: second compound 1 µM; first compound 0.003 µM
Description: Multicellular complex tumor spheroid response to LSD1 Inhibitor Iadademstat in combination with a variety of drugs and investigational agents in selected tumor cell lines The current study was undertaken to assess response to LSD1 inhibitors in combination with standard-of-care drugs and investigational agents in solid tumor complex spheroid models as well as in the K-562 leukemia. […] Compounds. […] If the clinical Cmax for an agent had not been determined, the highest concentration tested was 10 microM. […]
Just give me one of these, please: label 1 for active, label 0 for inactive

In: What call does the record list for Nc1ncn(C2CC(O)C(CO)S2)c(=O)n1 (stereo unspecified) + NC1CCC(NC2CC2c2ccccc2)CC1 ?
Out: label 0

In: Entry CCc1c2c(nc3ccc(O)cc13)-c1cc3c(c(=O)n1C2)COC(=O)[C@]3(O)CC + NC1CCC(NC2CC2c2ccccc2)CC1 : call = ?
Out: label 1

In: Look up the recorded call for Nc1ccn(C2OC(CO)C(O)C2(F)F)c(=O)n1 (stereo unspecified) + NC1CC1c1ccc(-c2cccc(O)c2)cc1 in this test.
Out: label 1

In: Call for entry CCc1c2c(nc3ccc(O)cc13)-c1cc3c(c(=O)n1C2)COC(=O)[C@]3(O)CC + NC1CC1c1ccc(-c2cccc(O)c2)cc1 :
Out: label 1

In: How did this test come out for Nc1ncn(C2CC(O)C(CO)S2)c(=O)n1 (stereo unspecified) + NC1CC1c1ccc(-c2cccc(O)c2)cc1 ?
Out: label 0

In: For Nc1ccn(C2OC(CO)C(O)C2(F)F)c(=O)n1 (stereo unspecified) + NC1CCC(NC2CC2c2ccccc2)CC1 , what call appears in the results of this test?
Out: label 1
